For each entry below, report its activation value.
- Test system: Nuclear hormone receptor DAF-12 (Strongyloides stercoralis)
- Method: ssDAF-12 driven luciferase reporter activation – cell-based, luminescence, HEK293, GRIP1 co-expression, lit1-tk-luc, primary screen (AID 652126);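 further: 0% = DMSO-only wells and 100% = 3 µM delta7-dafachronic acid wells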
- Condition parameters: HEK293 ssDAF-12/GRIP1 lit1-tk-luc reporter, at 6.8 µM, hits give high values
Hit rate of the full screen: of about 370,000 compounds, about 3,700 (1%) were called active. The sample holds actives, similar compounds and a random draw of the others, so the mix is not that of the screen.
One number for each entry, in %.

Would you please look over these solved cases?
O=C(CSC1c2ccccc2-c2ccccc21)N/N=C/c1ccccc1 : -0.76
Cc1cc(C)c2c(c1)NP(=S)(c1ccccc1)N2 (configuration not stated) : -0.09
CCNc1nc2[nH]c(=O)c3c(c2s1)OC(N)=C(C#N)C3c1cccs1 (configuration not stated) : -0.98

Report activation for every entry below.
1. CO[C@H]([C@H](C)/C=C/N(C)C=O)[C@@H](C)C(=O)CC[C@H](C)[C@H](O)[C@H](C)[C@H]1OC(=O)/C=C/C(C)=C/[C@H](O)[C@H](OC)C[C@@H]2C=CC[C@@H](C[C@H](OC)[C@@]3(CO3)[C@@H](OC)C[C@@H](OC)[C@@H]1C)O2
2. COc1ccc2c(c1)NP(=S)(c1ccccc1)N2 (configuration not stated)
3. c1cncc(CNCCc2c[nH]c3ccccc23)c1

1. -0.84
2. 1.75
3. -0.72

I'm hoping you can list activation for every compound here, please.
1. COc1c(O)ccc2c1-c1c3c(cc4c1C(C2)N(C)CC4)OCO3 (configuration not stated)
2. COc1ccc(C2C=C(C)Oc3c2c(=O)oc2ccccc32)cc1OC (configuration not stated)
3. N#CC1=C(N)Oc2c(c(=O)oc3ccccc23)C1c1ccccc1OC(=O)c1cccs1 (configuration not stated)
4. CN(C)c1nc(N(C)C)nc(N(C#N)CCCl)n1
5. Cc1ccccc1CCC[C@@H](CC1CCCCC1)CN(C)C(=O)Oc1ccccc1
6. COP(=O)(Sc1ccccc1)C(Cc1ccccc1)NC(=O)OCc1ccccc1 (configuration not stated)

1. -0.77
2. -0.69
3. 1.09
4. -1.19
5. -1.05
6. -1.15
